- assay remarks: Pilot pharmacokinetic (PK) study with NAM microcapsules: NA and NAM serum levels
- Assay type: in vivo, human
- condition details: human, serum, oral, 900 mg, 900 mg free or enc. NAM; hour 2; subjects 1-3
result type: concentration at 2 h

## Task For the compound shown here, NC(=O)c1cccnc1 [free NAM, nicotinamide] , give the reported concentration at 2 h.
## Result 10300 ng/mL

----------
- assay remarks: Pilot pharmacokinetic (PK) study with NAM microcapsules: NA and NAM serum levels
- Format: in vivo, human
- condition details: human, serum, oral, 900 mg, 900 mg free or enc. NAM; hour 3; subjects 1-3
result type: concentration at 3 h (ng/mL)
Lab book: enter the figure in ng/mL, no units written.

## Task Reported concentration at 3 h for NC(=O)c1cccnc1 [free NAM, nicotinamide] : what is it?
## Result 8380
